assay-system: CDK4 (Homo sapiens, UniProt P11802)
Construct: purchased Eurofins (KinaseProfiler service)
Sequence (P11802 whole entry): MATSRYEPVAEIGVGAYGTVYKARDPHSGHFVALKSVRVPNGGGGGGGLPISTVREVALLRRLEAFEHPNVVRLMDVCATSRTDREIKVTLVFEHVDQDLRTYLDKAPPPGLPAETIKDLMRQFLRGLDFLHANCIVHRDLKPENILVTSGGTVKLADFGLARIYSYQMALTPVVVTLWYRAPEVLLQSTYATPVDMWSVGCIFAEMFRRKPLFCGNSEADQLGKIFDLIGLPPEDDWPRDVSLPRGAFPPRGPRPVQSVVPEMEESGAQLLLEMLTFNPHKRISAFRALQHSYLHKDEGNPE
Sequence (P30281 whole entry partner): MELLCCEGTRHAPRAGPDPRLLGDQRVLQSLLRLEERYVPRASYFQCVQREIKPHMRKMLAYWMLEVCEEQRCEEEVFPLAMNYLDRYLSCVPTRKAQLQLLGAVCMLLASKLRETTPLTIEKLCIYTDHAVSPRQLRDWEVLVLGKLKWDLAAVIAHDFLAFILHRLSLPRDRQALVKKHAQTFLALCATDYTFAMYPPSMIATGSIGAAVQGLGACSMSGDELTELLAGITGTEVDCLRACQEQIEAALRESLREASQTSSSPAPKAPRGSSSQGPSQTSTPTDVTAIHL
method-summary: Kinase inhibition assay (KinaseProfiler, Eurofins), CDK4
Type: biochemical
Assign met to entries whose inhibition at 1 µM meets or exceeds 90%; assign not met to the rest.

# input Does the compound CN(C)C(=O)c1cc2cnc(Nc3ccc(S(=O)(=O)CCCCCCN=C=S)cc3)nc2n1C1CCCC1 have recorded inhibition at 1 µM that is 90% or more?
# output not met

# input Next record, please: CN(C)C(=O)c1cc2cnc(Nc3ccc(CSCCCCCCCN=C=S)cc3)nc2n1C1CCCC1
# output not met

# input Also check CN(C)C(=O)c1cc2cnc(Nc3ccc(CS(=O)(=O)CCCCCCCN=C=S)cc3)nc2n1C1CCCC1
# output met

# input And what about the compound CN(C)C(=O)c1cc2cnc(Nc3ccc(SCCCN=C=S)cc3)nc2n1C1CCCC1 ?
# output not met

# input CN(C)C(=O)c1cc2cnc(Nc3ccc(CSCCCCCN=C=S)cc3)nc2n1C1CCCC1 , same question.
# output not met

# input Consider next the compound CN(C)C(=O)c1cc2cnc(Nc3ccc(SCCCCCN=C=S)cc3)nc2n1C1CCCC1 in the same way.
# output not met

# input Further, for CN(C)C(=O)c1cc2cnc(Nc3ccc(CS(=O)(=O)CCCCN=C=S)cc3)nc2n1C1CCCC1 ?
# output met

# input Also check COc1cc(SCCCCCN=C=S)ccc1Nc1ncc2cc(C(=O)N(C)C)n(C3CCCC3)c2n1
# output not met

# input Follow-up entry: CN(C)C(=O)c1cc2cnc(Nc3ccc(SCCCCCN=C=S)cc3C(F)(F)F)nc2n1C1CCCC1
# output not met

# input Same read-out for CN(C)C(=O)c1cc2cnc(Nc3ccc(S(=O)(=O)CCCCCCCN=C=S)cc3)nc2n1C1CCCC1 ?
# output not met

# input Please do the same for CN(C)C(=O)c1cc2cnc(Nc3ccc(S(=O)(=O)CCCN=C=S)cc3)nc2n1C1CCCC1 as well.
# output met

Where do the numbers come from? From paper PMC6968521.
